- Study target: Type-1 angiotensin II receptor B (Rattus norvegicus) (UniProt P29089)
- Sequence (whole entry): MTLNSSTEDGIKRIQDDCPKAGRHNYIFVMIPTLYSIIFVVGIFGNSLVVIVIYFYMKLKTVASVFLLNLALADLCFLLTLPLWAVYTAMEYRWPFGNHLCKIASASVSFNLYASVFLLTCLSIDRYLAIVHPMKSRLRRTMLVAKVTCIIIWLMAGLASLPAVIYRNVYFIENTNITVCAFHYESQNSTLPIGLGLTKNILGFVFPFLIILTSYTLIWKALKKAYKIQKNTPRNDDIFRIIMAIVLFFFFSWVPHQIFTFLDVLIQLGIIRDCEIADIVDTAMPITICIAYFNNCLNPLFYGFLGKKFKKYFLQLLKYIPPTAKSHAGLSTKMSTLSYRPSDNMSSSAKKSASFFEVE
- Protocol notes: Percent displacement of [125I]Sar, Ile-Angiotensin II (A II) binding to rat Angiotensin II receptor, type 1
- Set-up: concentration or dose not given beside the values
Parameter: Displacement (%)

| Entry smiles | Unit info | Recorded measurement |
| --- | --- | --- |
| CSc1nc2ccccc2n1Cc1ccc(-c2ccccc2Cc2nnn[nH]2)cc1 | % | 38 |
| Clc1nc2ccccc2n1Cc1ccc(-c2ccccc2Cc2nnn[nH]2)cc1 | % | 31 |

(I) CC(C)c1nc2ccccc2n1Cc1ccc(-c2ccccc2-c2nn[nH]n2)cc1
(II) O=C1COc2cccnc2N1Cc1cccc(-c2cccc(Cc3nnn[nH]3)c2)c1
(III) O=C(O)c1cccc(-c2ccc(Cn3c(C(F)(F)F)nc4ccccc43)cc2)c1
Place the items in sequence of falling Displacement. Answer format: the labels, ordered as requested. I, III, II
(I: 69%, III: 33%, II: 21%)
